- Species: Rattus norvegicus
- ASSAY_OVERVIEW: Positive allosteric modulation of AMPA receptor in rat embryonic hippocampal neurons assessed as concentration required to double glutamate-induced steady-state current by patch clamp electrophysiology assay
- TEST_CONTEXT: Hippocampus
ASSAY_ENDPOINT: CD (µM)

COMPOUND | RELATION_OPERATOR | RECORDED_RESULT
[N-]=[N+]=NCCN1COc2cc3c(cc2C1=O)OC1CCCN1C3=O (stereo unspecified) | = | 0.08
N#CCN1COc2cc3c(cc2C1=O)OC1CCCN1C3=O (stereo unspecified) | = | 0.5
O=C1c2cc3c(cc2OCN1CCc1cccc(OC(F)(F)F)c1)C(=O)N1CCCC1O3 (stereo unspecified) | = | 3
COc1cccc(CCN2COc3cc4c(cc3C2=O)OC2CCCN2C4=O)c1 (stereo unspecified) | = | 14
O=C1c2cc3c(cc2OCN1CCc1cccc(F)c1)C(=O)N1CCCC1O3 (stereo unspecified) | = | 0.011
O=C1c2cc3c(cc2OCN1CCc1cccc(Cl)c1)C(=O)N1CCCC1O3 (stereo unspecified) | = | 0.02
C[S+]([O-])CCN1COc2cc3c(cc2C1=O)OC1CCCN1C3=O (stereo unspecified) | = | 0.11
O=C1c2cc3c(cc2OCN1CCc1cccc(Br)c1)C(=O)N1CCCC1O3 (stereo unspecified) | = | 1.6
COCCN1COc2cc3c(cc2C1=O)OC1CCCN1C3=O (stereo unspecified) | = | 1.2
O=C1c2cc3c(cc2OCN1CCn1ccnc1)C(=O)N1CCCC1O3 (stereo unspecified) | = | 0.05
O=C1c2cc3c(cc2OCN1CCc1ccc(Cl)cc1)C(=O)N1CCCC1O3 (stereo unspecified) | > | 40

====

- Species: Rattus norvegicus
- ASSAY_OVERVIEW: Positive allosteric modulation of AMPA receptor in rat embryonic hippocampal neurons assessed as concentration required to double glutamate-induced steady-state current by patch clamp electrophysiology assay
- TEST_CONTEXT: Hippocampus

COMPOUND | CD
O=C1c2cc3c(cc2OC2CCCN12)OCCO3 (stereo unspecified) | 2.3 µM
O=C1c2cc3c(cc2OCN1CCc1ccccc1Cl)C(=O)N1CCCC1O3 (stereo unspecified) | 7.1 µM
O=C1c2cc3c(cc2OCN1CCn1cncn1)C(=O)N1CCCC1O3 (stereo unspecified) | 0.063 µM
N#CCCN1COc2cc3c(cc2C1=O)OC1CCCN1C3=O (stereo unspecified) | 0.6 µM
N#CCCCCN1COc2cc3c(cc2C1=O)OC1CCCN1C3=O (stereo unspecified) | 0.11 µM
O=C1c2cc3c(cc2OCN1CCc1c[nH]cn1)C(=O)N1CCCC1O3 (stereo unspecified) | 5.1 µM
N#CNCCN1COc2cc3c(cc2C1=O)OC1CCCN1C3=O (stereo unspecified) | 1.8 µM
O=C1c2cc3c(cc2OCN1CCc1cc(F)cc(F)c1)C(=O)N1CCCC1O3 (stereo unspecified) | 0.005 µM
O=C1c2cc3c(cc2OCN1CCc1ccc(F)cc1)C(=O)N1CCCC1O3 (stereo unspecified) | 1.2 µM
CN(CCN1COc2cc3c(cc2C1=O)OC1CCCN1C3=O)S(C)(=O)=O (stereo unspecified) | 0.38 µM
NC(=S)c1cccc(CCN2COc3cc4c(cc3C2=O)OC2CCCN2C4=O)c1 (stereo unspecified) | 0.4 µM

All values here come from ChEMBL document CHEMBL1795275.
